Target: SARS-CoV-2 Main Protease (SARS-CoV-2)
endpoint label: pIC50
pIC50 here: minus log base 10 of the concentration, concentration in moles per litre.

The cases that follow already have their pIC50 on record.
> print(dat)
                                   molecule                    experimental.target  endpoint.label  measurement
1      O=C(Cc1cc(O)cc(Cl)c1)Nc1cncc2ccccc12  SARS-CoV-2 Main Protease (SARS-CoV-2)           pIC50         5.00
2  N#CC1(CS(=O)(=O)N2Cc3ccc(Cl)cc3C3(CCN(c4cncc5cc(F)cc(Cl)c45)C3=O)C2)CC1 (stereo unspecified)  SARS-CoV-2 Main Protease (SARS-CoV-2)           pIC50         4.62
3  O=C(Cc1cc(Cl)cc(Nc2ccc(C(F)(F)F)cn2)c1)Nc1cncc2ccccc12  SARS-CoV-2 Main Protease (SARS-CoV-2)           pIC50         5.40
4  O=C(c1cc(=O)[nH]c2ccccc12)N1CCN(c2ccccc2)CC1  SARS-CoV-2 Main Protease (SARS-CoV-2)           pIC50         4.56
5  CN1C(=O)CC(O)(C(=O)Nc2cncc3ccccc23)c2cc(Cl)ccc21 (stereo unspecified)  SARS-CoV-2 Main Protease (SARS-CoV-2)           pIC50         4.68

Q) Which measured pIC50 belongs to CC1(C(=O)Nc2cncc3cc(S(C)(=O)=O)ccc23)CNS(=O)(=O)c2ccc(Cl)cc21 (stereo unspecified) , tested on SARS-CoV-2 Main Protease (SARS-CoV-2)?
A) 6.76

Q) Form entry - test system: SARS-CoV-2 Main Protease (SARS-CoV-2); read-out: pIC50; molecule: O=C(Cc1cc(Cl)cc(Nc2cccc(I)c2)c1)Nc1cncc2ccccc12
A) 5.65

Q) Param readout= pIC50; system= SARS-CoV-2 Main Protease (SARS-CoV-2); entry= CS(=O)(=O)c1ccc2c(NC(=O)C3CN(CC(=O)NC4CC4)C(=O)c4ccc(Cl)cc43)cncc2c1 (stereo unspecified) ; returns value.
A) 6.67

Q) Hello, I am looking for reported pIC50 with SARS-CoV-2 Main Protease (SARS-CoV-2) for O=C(Cc1cccc(Cl)c1)NC1COCc2ccccc21 (stereo unspecified) . Could you help?
A) 4.16

Q) Request body: readout pIC50, system SARS-CoV-2 Main Protease (SARS-CoV-2), query CS(=O)(=O)Nc1ccc2c(NC(=O)Cc3cccc(Cl)c3)cncc2c1 . Return the value.
A) 6.05

Q) Please tell me: pIC50 of O=C(Cc1cc(Cl)cc(NCc2ccc([N+](=O)[O-])cc2)c1)Nc1cncc2ccccc12 , system SARS-CoV-2 Main Protease (SARS-CoV-2)?
A) 5.74

Q) Hi! What's the reported pIC50 for O=C(Cc1cc(Cl)cc(Nc2ccc(Oc3ccc(Cl)cc3)cc2)c1)Nc1cncc2ccccc12 on SARS-CoV-2 Main Protease (SARS-CoV-2)?
A) 5.61

Q) API: value(readout=pIC50, system=SARS-CoV-2 Main Protease (SARS-CoV-2)) for record Cc1c(N)cncc1NC(=O)Cc1cccc(C#N)c1
A) 4.79

Q) Observed pIC50 on SARS-CoV-2 Main Protease (SARS-CoV-2) for N#Cc1cc(CN2CCN(C(=O)CCl)CC2)c2ccccc2c1 , please.
A) 5.34
